molecular target: HLA-A*26:03; experiment: IEDB peptide-MHC binding, purified MHC/direct/fluorescence; filed as Kd, often an IC50 or EC50 that approximates it; bounds were set here for any values at or beyond the usual limits of such assays; conditions: source organism: Influenza A virus H3N2
Endpoint Name: Kd

Complete the entry with Kd for `EEIRRIWRQ`
≥ 20 µM

====

biological target: HLA-A*30:01; assay: IEDB peptide-MHC binding, purified MHC/competitive/radioactivity; filed as Kd, often an IC50 or EC50 that approximates it; bounds were set here for any values at or beyond the usual limits of such assays; details: source organism: Vaccinia virus Copenhagen
Endpoint Name: pKd
Lab note — pKd values are minus log10 of concentrations in M.

Complete the entry with pKd for `CFKPALPTL`
7.14

====

biological target: HLA-A*11:01; assay: IEDB peptide-MHC binding, purified MHC/competitive/fluorescence; filed as Kd, often an IC50 or EC50 that approximates it; bounds were set here for any values at or beyond the usual limits of such assays; conditions: source organism: Mycobacterium tuberculosis variant bovis BCG str. Pasteur 1173P2
Endpoint Name: Kd (nM)
Answer with a number only, understood to be in nM.

Complete the entry with Kd for `KPIPHRTVL`
125

====

target: HLA-A*02:11; assay: IEDB peptide-MHC binding, purified MHC/direct/fluorescence; filed as Kd, often an IC50 or EC50 that approximates it; bounds were set here for any values at or beyond the usual limits of such assays; conditions: source organism: Bacillus anthracis str. A0488
Endpoint Name: Kd

# return Kd for `WDAYIPHYV` , test system: HLA-A*02:11
≥ 20 µM

====

molecular target: HLA-B*48:01; test: IEDB peptide-MHC binding, purified MHC/direct/fluorescence; filed as Kd, often an IC50 or EC50 that approximates it; bounds were set here for any values at or beyond the usual limits of such assays; details: source organism: Listeria monocytogenes
Endpoint Name: Kd

# return Kd for `KRYKQMCTK` , test system: HLA-B*48:01
≥ 20 µM

====

target: HLA-A*24:03; assay: IEDB peptide-MHC binding, purified MHC/direct/fluorescence; filed as Kd, often an IC50 or EC50 that approximates it; bounds were set here for any values at or beyond the usual limits of such assays; details: source organism: Mammarenavirus lassaense
Endpoint Name: pKd
Lab note — pKd values are minus log10 of concentrations in M.

Complete the entry with pKd for `TFHLSIPNF`
7.46

====

target: HLA-A*03:01; assay: IEDB peptide-MHC binding, purified MHC/competitive/fluorescence; filed as Kd, often an IC50 or EC50 that approximates it; bounds were set here for any values at or beyond the usual limits of such assays; conditions: source organism: Salmonella enterica subsp. enterica serovar Paratyphi A str. AKU_12601
pKd: −log10 of the molar value.
Endpoint Name: pKd

Complete the entry with pKd for `AMDTHLYFE`
≤ 4.70

====

target: HLA-A*69:01; experiment: IEDB peptide-MHC binding, purified MHC/direct/fluorescence; filed as Kd, often an IC50 or EC50 that approximates it; bounds were set here for any values at or beyond the usual limits of such assays; details: source organism: Escherichia coli O157:H7
pKd: −log10 of the molar value.
Endpoint Name: pKd

Complete the entry with pKd for `PSSKPDWFY`
≤ 4.70

====

target: HLA-A*02:03; assay: IEDB peptide-MHC binding, purified MHC/competitive/fluorescence; filed as Kd, often an IC50 or EC50 that approximates it; bounds were set here for any values at or beyond the usual limits of such assays; conditions: source organism: Cryptosporidium parvum Iowa II
Record form. Attribute: Kd. Fill in for each entry.

Complete the entry with Kd for `KSFSAGMFH`
≥ 20 µM

Complete the entry with Kd for `KSWLVHWSL`
≥ 20 µM

====

target: HLA-B*08:01; experiment: IEDB peptide-MHC binding, purified MHC/direct/fluorescence; filed as Kd, often an IC50 or EC50 that approximates it; bounds were set here for any values at or beyond the usual limits of such assays; settings: source organism: Yersinia enterocolitica
pKd: −log10 of the molar value.
Endpoint Name: pKd

Complete the entry with pKd for `GYGRVNAGK`
≤ 4.70

====

target: HLA-B*07:02; test: IEDB peptide-MHC binding, purified MHC/competitive/fluorescence; filed as Kd, often an IC50 or EC50 that approximates it; bounds were set here for any values at or beyond the usual limits of such assays; details: source organism: Shigella boydii CDC 3083-94
Endpoint Name: pKd
Lab note — pKd values are minus log10 of concentrations in M.

Complete the entry with pKd for `LPYPYSSSA`
7.10

====

molecular target: HLA-B*40:01; test: IEDB peptide-MHC binding, purified MHC/direct/fluorescence; filed as Kd, often an IC50 or EC50 that approximates it; bounds were set here for any values at or beyond the usual limits of such assays; details: source organism: Rickettsia prowazekii
Record form. Attribute: Kd. Fill in for each entry.

Complete the entry with Kd for `IYSAEFKNY`
≥ 20 µM

Complete the entry with Kd for `QFAGGSFDF`
≥ 20 µM

====

target: HLA-B*39:01; experiment: IEDB peptide-MHC binding, purified MHC/competitive/fluorescence; filed as Kd, often an IC50 or EC50 that approximates it; bounds were set here for any values at or beyond the usual limits of such assays; conditions: source organism: Homo sapiens
pKd: −log10 of the molar value.
Endpoint Name: pKd

Complete the entry with pKd for `VVPSYIPLV`
≤ 4.70

====

target: HLA-A*68:02; assay: IEDB peptide-MHC binding, purified MHC/competitive/fluorescence; bounds were set here for any values at or beyond the usual limits of such assays; conditions: source organism: Monodelphis domestica
Endpoint Name: IC50

Complete the entry with IC50 for `LEYFQFVKKLL`
≥ 20 µM

====

molecular target: HLA-B*51:01; experiment: IEDB peptide-MHC binding, purified MHC/competitive/radioactivity; filed as Kd, often an IC50 or EC50 that approximates it; bounds were set here for any values at or beyond the usual limits of such assays; settings: source organism: Dengue virus 1 Brazil/97-11/1997
Endpoint Name: pKd
Lab note — pKd values are minus log10 of concentrations in M.

Complete the entry with pKd for `IALFLAHAI`
6.87

Complete the entry with pKd for `LAIPPTAGI`
6.41

Complete the entry with pKd for `LPTALAFHL`
5.85

====

molecular target: HLA-A*26:01; assay: IEDB peptide-MHC binding, purified MHC/competitive/radioactivity; filed as Kd, often an IC50 or EC50 that approximates it; bounds were set here for any values at or beyond the usual limits of such assays; settings: source organism: Lassa virus Josiah
Record form. Attribute: Kd. Fill in for each entry.

Complete the entry with Kd for `SSGCYIHFF`
≥ 64.1 µM

Complete the entry with Kd for `ITEMLQKEY`
≥ 77.9 µM

====

biological target: HLA-B*39:01; assay: IEDB peptide-MHC binding, purified MHC/direct/fluorescence; filed as Kd, often an IC50 or EC50 that approximates it; bounds were set here for any values at or beyond the usual limits of such assays; details: source organism: Marburg virus - Musoke, Kenya, 1980
Endpoint Name: Kd

# return Kd for `ISDPLTSGL` , test system: HLA-B*39:01
≥ 20 µM

# return Kd for `IHLDKGGQF` , test system: HLA-B*39:01
≥ 20 µM

====

molecular target: HLA-B*40:01; experiment: IEDB peptide-MHC binding, purified MHC/direct/fluorescence; filed as Kd, often an IC50 or EC50 that approximates it; bounds were set here for any values at or beyond the usual limits of such assays; conditions: source organism: Cryptosporidium parvum
pKd: −log10 of the molar value.
Endpoint Name: pKd

Complete the entry with pKd for `NTSTCFQEY`
≤ 4.70

====

biological target: HLA-B*51:01; assay: IEDB peptide-MHC binding, purified MHC/direct/fluorescence; filed as Kd, often an IC50 or EC50 that approximates it; bounds were set here for any values at or beyond the usual limits of such assays; conditions: source organism: Influenza A virus (A/Memphis/1/1986(H3N2))
pKd: −log10 of the molar value.
Endpoint Name: pKd

Complete the entry with pKd for `NHDGIQAGV`
≤ 4.70

====

biological target: HLA-A*02:03; experiment: IEDB peptide-MHC binding, purified MHC/competitive/fluorescence; filed as Kd, often an IC50 or EC50 that approximates it; bounds were set here for any values at or beyond the usual limits of such assays; conditions: source organism: Human immunodeficiency virus 1
Endpoint Name: Kd (nM)
Answer with a number only, understood to be in nM.

Complete the entry with Kd for `RSLYNTIAVLY`
679

====

target: HLA-B*51:01; test: IEDB peptide-MHC binding, purified MHC/competitive/radioactivity; filed as Kd, often an IC50 or EC50 that approximates it; bounds were set here for any values at or beyond the usual limits of such assays; settings: source organism: Dengue virus 2 16681-PDK53
Endpoint Name: Kd

# return Kd for `SPIIDKKGKV` , test system: HLA-B*51:01
≥ 69.6 µM

====

molecular target: HLA-B*15:17; assay: IEDB peptide-MHC binding, purified MHC/direct/fluorescence; filed as Kd, often an IC50 or EC50 that approximates it; bounds were set here for any values at or beyond the usual limits of such assays; settings: source organism: Influenza A virus (A/Memphis/1/1986(H3N2))
Endpoint Name: Kd

Complete the entry with Kd for `NHDGIQAGV`
≥ 20 µM
